From: paper PMC6387623

experimental.system: RGS4 (single-cysteine RGS4 C95) (Rattus norvegicus, UniProt P49799, C71A/C132A/C148A/C183A/C197A/C204A)
Sequence (P49799 52-205 C71A/C132A/C148A/C183A/C197A/C204A): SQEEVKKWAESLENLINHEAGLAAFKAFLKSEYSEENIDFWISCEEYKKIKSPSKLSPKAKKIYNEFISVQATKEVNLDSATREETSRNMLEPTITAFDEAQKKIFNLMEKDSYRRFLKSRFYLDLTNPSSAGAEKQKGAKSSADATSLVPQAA
test.summary: Flow cytometry protein interaction assay
pIC50: −log10 of the molar value.
endpoint.label: pIC50

Consider the compound Cc1ccc(-n2sc(=O)n(Cc3ccc(F)cc3)c2=O)cc1 [compound 1, CCG-50014] and give its measured pIC50. ~5.35
